tested on: 855422-203-R-J1-PDC complex spheroid growth; test: Anticancer human tumor 855422-203-R-J1-PDC patient-derived bladder carcinoma cell line growth inhibition [AhR]; conditions: second compound 0.1 µM; first compound 1 µM; stronger effect = lower value;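 also: spheroids exposed to agents for seven days before readout; percent of DMSO vehicle control luminescence viability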
Catalogue of compounds with associated viability, T/C
Number in %, nothing else.

Take a look at these entries with their results.
{"compound": "COc1cc(Nc2ncc3c(n2)-c2ccc(Cl)cc2C(c2c(F)cccc2OC)=NC3)ccc1C(=O)O + Cc1cncc(-c2nc(NCCc3c[nH]c4ccccc34)c3ncn(C(C)C)c3n2)c1", "observed_value": 55}
{"compound": "CC1(C)CCC(CN2CCN(c3ccc(C(=O)NS(=O)(=O)c4ccc(NCC5CCOCC5)c([N+](=O)[O-])c4)c(Oc4cnc5[nH]ccc5c4)c3)CC2)=C(c2ccc(Cl)cc2)C1 + CC(CO)NC(=O)c1cc(-c2ccc(Cl)cc2)nn(-c2cnn(C)c2)c1=O", "observed_value": 97.8}
{"compound": "CC1COCCN1c1cc(-c2ccnn2C)c2ccnc(-c3ccn[nH]3)c2n1 (stereo unspecified) + Cc1cncc(-c2nc(NCCc3c[nH]c4ccccc34)c3ncn(C(C)C)c3n2)c1", "observed_value": 12.7}
{"compound": "Nc1ccccc1NC(=O)c1ccc(CNC(=O)OCc2cccnc2)cc1 + Cc1cncc(-c2nc(NCCc3c[nH]c4ccccc34)c3ncn(C(C)C)c3n2)c1", "observed_value": 74.3}
{"compound": "COc1cccc2c1C(=O)c1c(O)c3c(c(O)c1C2=O)CC(O)(C(=O)CO)CC3OC1CC(N)C(O)C(C)O1 (stereo unspecified) + Cc1ccccc1N=Nc1ccc(NC(=O)c2ccnn2C)c(C)c1", "observed_value": 2.76}

The compound identified as Nc1ccccc1NC(=O)c1ccc(CNC(=O)OCc2cccnc2)cc1 + Cc1ccccc1N=Nc1ccc(NC(=O)c2ccnn2C)c(C)c1 registered its viability, T/C at 107
